Values compiled from ChEMBL document CHEMBL1649185.

Test system: Pseudomonas aeruginosa
Test: Antimicrobial activity against Pseudomonas aeruginosa CAN-ICU 62308 […]
Format: functional
Square brackets hold non-standard residues; d marks the D form. Peptide text beside a SMILES is read from it. * marks the point of attachment. Palmitoyl = CCCCCCCCCCCCCCCC(=O)*; Lauroyl = CCCCCCCCCCCC(=O)*
In this section we review reported MIC values for a set of compounds.

Worked cases, answers included:
| COMPOUND | SYSTEM NAME | MEAS VALUE |
| --- | --- | --- |
| CCCCCCCCCCCC(=O)N[C@@H](CCCCN)C(=O)N[C@@H](CC(C)C)C(=O)N[C@H](CC(C)C)C(=O)N[C@@H](CCCCN)C(=O)O (Lauroyl-KL[dL]K-OH) | Pseudomonas aeruginosa | 128 µg/mL |
| CCCCCCCCCCCCCCCC(=O)N[C@@H](CCCCN)C(=O)N[C@@H](C)C(=O)N[C@H](C)C(=O)N[C@@H](CCCCN)C(=O)O (Palmitoyl-KA[dA]K-OH) | Pseudomonas aeruginosa | 64 µg/mL |
| CCCCCCCCCCCCCCCC(=O)N[C@@H](CCCCN)C(=O)NCC(=O)NCC(=O)N[C@H](CCCCN)C(=O)O | Pseudomonas aeruginosa | 64 µg/mL |
| CCCCCCCCCCCCCCCC(=O)N[C@H](CCCN)CC(=O)NCC(=O)NCC(=O)N[C@H](CCCN)CC(=O)O | Pseudomonas aeruginosa | > 64 µg/mL |
| CCCCCCCCCCCCCCCC(=O)N[C@@H](CCCCN)C(=O)N[C@@H](CCCCN)C(=O)N[C@H](CCCCN)C(=O)N[C@@H](CCCCN)C(=O)O (Palmitoyl-KK[dK]K-OH) | Pseudomonas aeruginosa | 256 µg/mL |

MIC recorded for this compound, CCCCCCCCCCCC(=O)N[C@H](CCCN)CC(=O)N[C@@H](CC(=O)N[C@@H](CC(=O)N[C@H](CCCN)CC(=O)O)C(C)C)C(C)C , is 128 µg/mL

Note to self: MIC recorded for CCCCCCCCCCCC(=O)N[C@@H](CCCCN)C(=O)N[C@@H](CC(C)C)C(=O)N[C@@H](CC(C)C)C(=O)N[C@@H](CCCCN)C(=O)O (Lauroyl-KLLK-OH) was 128 µg/mL

Given item CCCCCCCCCCCCCCCC(=O)N[C@@H](CCCCN)C(=O)NCC(=O)NCC(=O)N[C@@H](CCCCN)C(=O)O , the value recorded as its MIC is 64 µg/mL

MIC in this record for CCCCCCCCCCCCCCCC(=O)N[C@@H](CCCCN)C(=O)N[C@@H](C)C(=O)N[C@@H](C)C(=O)N[C@@H](CCCCN)C(=O)O (Palmitoyl-KAAK-OH) : 64 µg/mL

Measured MIC of CCCCCCCCCCCCCCCC(=O)N[C@H](CCCN)CC(=O)NCCC(=O)NCCC(=O)N[C@H](CCCN)CC(=O)O : 128 µg/mL

For record CCCCCCCCCCCCCCCC(=O)N[C@H](CCCN)CC(=O)N[C@H](CCCN)CC(=O)N[C@H](CCCN)CC(=O)N[C@H](CCCN)CC(=O)O the listed MIC is 128 µg/mL

MIC reading for CCCCCCCCCCCCCCCC(=O)N[C@@H](CCCCN)C(=O)N[C@@H](CCCCN)C(=O)N[C@@H](CCCCN)C(=O)N[C@@H](CCCCN)C(=O)O (Palmitoyl-KKKK-OH) : 256 µg/mL
